PROCEDURE SUMMARY: Phase 1 Stage 1 clinical pharmacokinetics of SC ZA co-administered with rHuPH20
Assay type: in vivo, human
RUN PARAMETERS: human, serum, sc, serum; ZA 0.25 mg SC infusion + 24000 Units rHuPH20; 2 h post infusion; n=3; read-out: Mean Conc.
QUANTITY NAME: concentration at 2 h (ng/mL)
Number in ng/mL, nothing else.

Q: Tell me the measured concentration at 2 h of O=P(O)(O)C(O)(Cn1ccnc1)P(=O)(O)O [ZA] , please.
Result: 5.06

---

PROCEDURE SUMMARY: Phase 1 Stage 1 clinical pharmacokinetics of SC ZA co-administered with rHuPH20
Type: in vivo, human
RUN PARAMETERS: human, serum, sc, […], AUC (0-24 h), Subj 26; ZA […] SC; inf […]; PH20 23088 U
QUANTITY NAME: AUC(0-t)

Q: Tell me the measured AUC(0-t) of O=P(O)(O)C(O)(Cn1ccnc1)P(=O)(O)O [ZA] , please.
Result: 147 ng·h/mL

---

PROCEDURE SUMMARY: Phase 1 Stage 1 clinical pharmacokinetics of SC ZA co-administered with rHuPH20
Format: in vivo, human
RUN PARAMETERS: human, serum, sc, serum; ZA 2 mg SC infusion + 24000 Units rHuPH20; 0.5 h post infusion; n=3; read-out: Median Conc.
QUANTITY NAME: concentration at 0.5 h (ng/mL)
Number in ng/mL, nothing else.

Q: Tell me the measured concentration at 0.5 h of O=P(O)(O)C(O)(Cn1ccnc1)P(=O)(O)O , please.
Result: 48.6

---

PROCEDURE SUMMARY: Phase 1 Stage 1 clinical pharmacokinetics of SC ZA co-administered with rHuPH20
Type: in vivo, human
RUN PARAMETERS: human, serum, sc, serum; ZA 1 mg SC infusion + 24000 Units rHuPH20; 1 h post infusion; individual subjects; read-out: Zoledronic Acid Concentration
QUANTITY NAME: concentration at 1 h (ng/mL)
Number in ng/mL, nothing else.

Q: Tell me the measured concentration at 1 h of O=P(O)(O)C(O)(Cn1ccnc1)P(=O)(O)O , please.
Result: 29.9

---

PROCEDURE SUMMARY: Pharmacokinetics of ZA in pig serum after IV or SC infusion with or without rHuPH20 (LC-MS-MS, non-compartmental analysis)
Type: in vivo
RUN PARAMETERS: female, Yorkshire, pig, serum, sc, […], pig; SC ZA […], no rHuPH20 (Study Group 2); n=4; read-out: Vz/F, mean
QUANTITY NAME: Vd/F

Q: Tell me the measured Vd/F of O=P(O)(O)C(O)(Cn1ccnc1)P(=O)(O)O , please.
Result: 0.784 L/kg

---

PROCEDURE SUMMARY: Phase 1 Stage 1 clinical pharmacokinetics of SC ZA co-administered with rHuPH20
Assay type: in vivo, human
RUN PARAMETERS: human, serum, sc, serum; ZA 5 mg SC infusion + 24000 Units rHuPH20; 4 h post infusion; n=3; read-out: Mean Conc.
Procedure: A pharmacokinetic study of zoledronic acid (ZA) co-administered with rHuPH20 in human subjects was conducted. […] Serum concentration of ZA was determined using a qualified LC-MS-MS assay after derivatization with diazomethane (Zhu, L S et al. (2006) Rapid Commun. […] The assay range was from 2.0 to 400 ng/mL with a lower limit of quantitation (LLOQ) at 2.0 ng/mL. […] Summary statistics (mean, standard deviation, and median) were calculated using JMP or Microsoft Excel.
QUANTITY NAME: concentration at 4 h (ng/mL)
Number in ng/mL, nothing else.

Q: Tell me the measured concentration at 4 h of O=P(O)(O)C(O)(Cn1ccnc1)P(=O)(O)O [ZA] , please.
Result: 50

---

PROCEDURE SUMMARY: Phase 1 Stage 1 clinical pharmacokinetics of SC ZA co-administered with rHuPH20
Type: in vivo, human
RUN PARAMETERS: human, serum, sc, serum; ZA 0.5 mg SC infusion + 24000 Units rHuPH20; 8 h post infusion; individual subjects; read-out: Zoledronic Acid Concentration
QUANTITY NAME: concentration at 8 h

Q: Tell me the measured concentration at 8 h of O=P(O)(O)C(O)(Cn1ccnc1)P(=O)(O)O , please.
Result: 1.19 ng/mL

---

PROCEDURE SUMMARY: Pharmacokinetics of ZA in pig serum after IV or SC infusion with or without rHuPH20 (LC-MS-MS, non-compartmental analysis)
Assay type: in vivo
RUN PARAMETERS: female, Yorkshire, pig, serum, subcutaneous, […], pig 58, Study Group 3, SC, ZA […], rHuPH20 10000 U/mL, 50 mL over 8 min, time 4 h; read-out: Zoledronic Acid Serum Concentration
QUANTITY NAME: concentration at 4 h (ng/mL)
Number in ng/mL, nothing else.

Q: Tell me the measured concentration at 4 h of O=P(O)(O)C(O)(Cn1ccnc1)P(=O)(O)O , please.
Result: 8.27

---

PROCEDURE SUMMARY: Pharmacokinetics of ZA in pig serum after IV or SC infusion with or without rHuPH20 (LC-MS-MS, non-compartmental analysis)
Assay type: in vivo
RUN PARAMETERS: female, Yorkshire, pig, serum, sc, […], pig 70; SC ZA […], 10 mL over 1.6 min, no rHuPH20; read-out: Tmax
Description: A pharmacokinetic study of zoledronic acid (ZA) co-administered with rHuPH20 in female Yorkshire swines was conducted. […] Serum concentration of ZA was determined using a qualified LC-MS-MS assay after derivatization with diazomethane (Zhu, L S et al. (2006) Rapid Commun. Mass Spectrom. 20: 3421-3426; “Qualification Data of An LC-MS/MS Method for the Determination of Zoledronate in Porcine Serum”, MDS Pharma Services Study No. AA43671-01, Report Date 14 Sep. 2007). […]
QUANTITY NAME: Tmax (min)
Number in min, nothing else.

Q: Tell me the measured Tmax of O=P(O)(O)C(O)(Cn1ccnc1)P(=O)(O)O [ZA] , please.
Result: 10

---

PROCEDURE SUMMARY: Phase 1 Stage 1 clinical pharmacokinetics of SC ZA co-administered with rHuPH20
Type: in vivo, human
RUN PARAMETERS: human, serum, sc, ZA 5 mg SC + 24000 U rHuPH20; mean, n=3; read-out: Vz/F
QUANTITY NAME: Vd/F (L/kg)
Number in L/kg, nothing else.

Q: Tell me the measured Vd/F of O=P(O)(O)C(O)(Cn1ccnc1)P(=O)(O)O [ZA] , please.
Result: 3.92

---

PROCEDURE SUMMARY: Phase 1 Stage 1 clinical pharmacokinetics of SC ZA co-administered with rHuPH20
Assay type: in vivo, human
RUN PARAMETERS: human, serum, sc, 0.0339 mg/kg, AUC (0-48 h), Subj 29; ZA 0.0339 mg/kg SC; inf 0.556 hr; PH20 24000 U
QUANTITY NAME: AUC(0-t) (ng·h/mL)
Number in ng·h/mL, nothing else.

Q: Tell me the measured AUC(0-t) of O=P(O)(O)C(O)(Cn1ccnc1)P(=O)(O)O [ZA] , please.
Result: 236

---

PROCEDURE SUMMARY: Pharmacokinetics of ZA in pig serum after IV or SC infusion with or without rHuPH20 (LC-MS-MS, non-compartmental analysis)
Type: in vivo
RUN PARAMETERS: female, Yorkshire, pig, serum, subcutaneous, […], Time 6 h; pig ID 62; Study Group 2; SC; ZA […]; 50 mL, 8 min; rHuPH20 0 U/mL; read-out: Zoledronic Acid Serum Concentration
QUANTITY NAME: concentration at 6 h (ng/mL)
Number in ng/mL, nothing else.

Q: Tell me the measured concentration at 6 h of O=P(O)(O)C(O)(Cn1ccnc1)P(=O)(O)O [ZA] , please.
Result: 2.99

---

PROCEDURE SUMMARY: Phase 1 Stage 1 clinical pharmacokinetics of SC ZA co-administered with rHuPH20
Format: in vivo, human
RUN PARAMETERS: human, serum, sc, ZA 0.5 mg SC + 24000 U rHuPH20; individual subjects; read-out: Tmax
QUANTITY NAME: Tmax

Q: Tell me the measured Tmax of O=P(O)(O)C(O)(Cn1ccnc1)P(=O)(O)O [ZA] , please.
Result: 48.6 min

---

PROCEDURE SUMMARY: Phase 1 Stage 1 clinical pharmacokinetics of SC ZA co-administered with rHuPH20
Format: in vivo, human
RUN PARAMETERS: human, serum, sc, serum; ZA 1 mg SC infusion + 24000 Units rHuPH20; 4 h post infusion; n=3; read-out: Mean Conc.
QUANTITY NAME: concentration at 4 h (ng/mL)
Number in ng/mL, nothing else.

Q: Tell me the measured concentration at 4 h of O=P(O)(O)C(O)(Cn1ccnc1)P(=O)(O)O [ZA] , please.
Result: 10.3

All values here come from patent US20090311237A1.
